The following compounds are listed with their measured Cocklebur plant response rating values.
# System: cocklebur (Xanthium strumarium)
# protocolText: Test B pre/postemergence
# Type: in vivo
# studyConditions: Postemergence, 62 g ai/ha; scale 0 to 100 (0 no effect, 100 complete control)
Just the number.

These recorded examples may help you get a feel for the data.
smiles | readoutValue
CCCOC(=O)c1nc(C2CC2)nc(N)c1Cl | 70
Nc1nc(C2CC2)nc(C(=O)O)c1Cl | 100
Nc1nc(-c2ccc(Cl)cc2)nc(C(=O)O)c1Br | 100

Now look at this one.
Data request: Please look up its Cocklebur plant response rating: "Nc1nc(-c2ccc(Cl)cc2)nc(C(=O)[O-])c1Cl.[Na+]"
Data returned: 100

###

# Tested on: bearded (brdd.) sprangletop (Leptochloa fusca ssp. fascicularis)
# protocolText: Test E flooded paddy water application
# Assay type: in vivo
# studyConditions: 125 g ai/ha; Flood; 21 days; scale 0 to 100 (0 no effect, 100 complete control)
The following molecules are listed with their measured Sprangletop, Brdd. plant response rating values.
Just the number.

These recorded examples may help you get a feel for the data.
molecule | readoutValue
COC(=O)c1nc(-c2ccc(I)cc2)nc(N)c1Br [Compound 128] | 0
CCOC(=O)c1nc(-c2ccc(CC)cc2)nc(N)c1Cl [Compound 99] | 0
Nc1nc(-c2ccc(Cl)cc2)nc(C(=O)[O-])c1Cl.[Na+] [Compound 117] | 0
CNc1nc(-c2ccc(Cl)cc2)nc(C(=O)OC)c1Cl [Compound 111] | 0
CCOC(=O)c1nc(-c2ccc3c(c2)OCO3)nc(N)c1Cl [Compound 74] | 0
COC(=O)c1nc(-c2ccc(Cl)cc2)nc(N)c1Cl [Compound 58] | 60

Now look at this one.
Data request: Please look up its Sprangletop, Brdd. plant response rating: COC(=O)c1nc(-c2ccc(Br)cc2)nc(N)c1Br [Compound 129]
Data returned: 0

###

# System: pigweed (Amaranthus retroflexus)
# protocolText: Test C pre/postemergence
# Assay type: in vivo
# studyConditions: Postemergence, 250 g ai/ha; scale 0 to 100
reportedProperty: Plant response rating, Pigweed
Just the number.

compound | targetDesc | readoutValue
CCCCOC(=O)c1nc(C2CC2)nc(N)c1Br [Compound 16] | pigweed (Amaranthus retroflexus) | 95

Data request: Recall the recorded Plant response rating, Pigweed for COC(=O)CNc1nc(C2CC2)nc(C(=O)OC)c1Br [Compound 10] with pigweed (Amaranthus retroflexus) and state it.
Data returned: 95

Data request: Recall the recorded Plant response rating, Pigweed for CC(=O)NN=Cc1nc(C2CC2)nc(N)c1Br [Compound 51] with pigweed (Amaranthus retroflexus) and state it.
Data returned: 80

Data request: Recall the recorded Plant response rating, Pigweed for CCOC(=O)c1nc(-c2ccc(Cl)cc2)nc(N)c1Br [Compound 37] with pigweed (Amaranthus retroflexus) and state it.
Data returned: 100

Data request: Recall the recorded Plant response rating, Pigweed for Nc1nc(C2CC2)nc(C=NO)c1Br [Compound 27] with pigweed (Amaranthus retroflexus) and state it.
Data returned: 30

###

# Test system: morningglory (Ipomoea coccinea)
# protocolText: Test C pre/postemergence
# Assay type: in vivo
# studyConditions: Postemergence, 250 g ai/ha; scale 0 to 100
reportedProperty: Plant response rating, Morningglory
Just the number.

These recorded examples may help you get a feel for the data.
compound | Plant response rating, Morningglory
COC(=O)c1nc(C2CC2C)nc(N)c1Br (centres unmarked) | 95
Nc1nc(C2CC2)nc(C=NO)c1Br | 85
CNN=Cc1nc(C2CC2)nc(N)c1Br | 80

Data request: Please look up its Plant response rating, Morningglory: "CCCOC(=O)c1nc(C2CC2)nc(N)c1Br"
Data returned: 100

Data request: Please look up its Plant response rating, Morningglory: "CCOC(=O)c1nc(-c2ccc(Cl)cc2)nc(N)c1Br"
Data returned: 80
